Biological target: Recombinant human GST-tagged Kat6b protein (431-end)
Assay: Kat6b activity assay (TR-FRET, acetylation of biotinylated Histone-H4-derived peptide)
Details: 30 mins at 22° C., read-out: KAT6B activity assay IC50 [mol/l] (arithmetic mean)
Method: Kat6b inhibitory activities of the compounds described in the present invention were quantified using a Fluorescence Resonance Energy Transfer (TR-FRET) assay which measures acetylation of a synthetic, biotinylated Histone-H4-derived peptide by the enzyme. In this case 50 nl DMSO were used instead of compounds. […] IC50 values were determined by regression analysis based on a 4 parameter equation (minimum, maximum, ICM, Hill; Y=Max+(Min−Max)/(1+(X/ICso) Hill) using the Screener Software (Genedata).
endpoint.name: IC50 (nM)

{"compound": "CCN(C)c1ccc2cc(C(=O)NS(=O)(=O)c3ccccc3Cl)oc2c1", "endpoint.name": "IC50", "qualifier.symbol": "=", "number": 1410}
{"compound": "CN(C)c1ccc2cc(C(=O)N[S@SP1](=O)(=O)c3cccc4ccccc34)oc2c1", "endpoint.name": "IC50", "qualifier.symbol": "=", "number": 88.4}
{"compound": "CN(C)c1ccc2cc(C(=O)NS(=O)(=O)c3ccccc3-c3ccccc3)oc2c1C(F)(F)F", "endpoint.name": "IC50", "qualifier.symbol": "=", "number": 3010}
{"compound": "CN(C)c1cc(F)c2cc(C(=O)NS(=O)(=O)c3ccccc3OC3CC3)oc2c1", "endpoint.name": "IC50", "qualifier.symbol": "=", "number": 3.82}
{"compound": "CCOc1ncccc1S(=O)(=O)NC(=O)c1cc2ccc(N(C)C)cc2o1", "endpoint.name": "IC50", "qualifier.symbol": "=", "number": 377}
{"compound": "CC(C)c1ccc(OCC2CC2)c(S(=O)(=O)NC(=O)c2cc3ccc(N(C)C)cc3o2)c1", "endpoint.name": "IC50", "qualifier.symbol": "=", "number": 24}
{"compound": "CN(C)c1ccc2cc(C(=O)NS(=O)(=O)c3ccccc3OC3CC3)oc2c1", "endpoint.name": "IC50", "qualifier.symbol": "=", "number": 34.5}
{"compound": "CCOc1ccccc1S(=O)(=O)NC(=O)c1cc2ccc(N(C)CC)cc2o1", "endpoint.name": "IC50", "qualifier.symbol": "=", "number": 495}
{"compound": "CN(C)c1ccc2cc(C(=O)NS(=O)(=O)c3cc(C(C)(C)C)ccc3OCC3CC3)oc2c1", "endpoint.name": "IC50", "qualifier.symbol": "=", "number": 21.3}
{"compound": "CN(C)c1ccc2cc(C(=O)NS(=O)(=O)c3ccccc3OC(F)(F)F)oc2c1", "endpoint.name": "IC50", "qualifier.symbol": "=", "number": 59.1}
{"compound": "COc1ccc(Cn2cccn2)cc1S(=O)(=O)NC(=O)c1cc2ccc(N(C)C)cc2o1", "endpoint.name": "IC50", "qualifier.symbol": "=", "number": 80}
{"compound": "COc1ccc(C(C)(C)C)cc1S(=O)(=O)NC(=O)c1cc2ccc(N(C)C)cc2o1", "endpoint.name": "IC50", "qualifier.symbol": "=", "number": 13.9}
{"compound": "CN(C)c1ccc2cc(C(=O)NS(=O)(=O)c3ccccc3F)oc2c1", "endpoint.name": "IC50", "qualifier.symbol": "=", "number": 504}
{"compound": "Cc1ccc2cccc(S(=O)(=O)NC(=O)c3cc4c(C(F)(F)F)cc(N(C)C)cc4o3)c2n1", "endpoint.name": "IC50", "qualifier.symbol": "=", "number": 1.78}
{"compound": "CCOc1ccc([N+](=O)[O-])cc1S(=O)(=O)NC(=O)c1cc2ccc(N(C)C)cc2o1", "endpoint.name": "IC50", "qualifier.symbol": "=", "number": 205}
{"compound": "CN(C)c1ccc2cc(C(=O)NS(=O)(=O)c3c(F)cccc3OC3CCC3)oc2c1", "endpoint.name": "IC50", "qualifier.symbol": "=", "number": 229}
{"compound": "Cc1cnc2c(S(=O)(=O)NC(=O)c3cc4ccc(N(C)C)cc4o3)cccc2c1", "endpoint.name": "IC50", "qualifier.symbol": "=", "number": 104}
{"compound": "CCCOc1cccc(CC)c1S(=O)(=O)NC(=O)c1cc2ccc(N(C)C)cc2o1", "endpoint.name": "IC50", "qualifier.symbol": "=", "number": 374}
{"compound": "CN(C)c1ccc2cc(C(=O)NS(=O)(=O)c3ccccc3OCC(F)F)oc2c1", "endpoint.name": "IC50", "qualifier.symbol": "=", "number": 246}
{"compound": "CN(c1ccccc1)c1ccc2cc(C(=O)NS(=O)(=O)c3ccccc3Cl)oc2c1", "endpoint.name": "IC50", "qualifier.symbol": "=", "number": 4400}
{"compound": "CCN(C)c1ccc2cc(C(=O)NS(=O)(=O)c3ccccc3)oc2c1", "endpoint.name": "IC50", "qualifier.symbol": "=", "number": 5700}
{"compound": "CN(c1ccccc1)c1ccc2cc(C(=O)NS(=O)(=O)c3ccccc3-c3ccccc3)oc2c1", "endpoint.name": "IC50", "qualifier.symbol": "=", "number": 1490}
{"compound": "CN(C)c1ccc2cc(C(=O)NS(=O)(=O)c3ccccc3-c3cccc(Cl)c3)sc2c1", "endpoint.name": "IC50", "qualifier.symbol": "=", "number": 528}
{"compound": "CCOc1cccc(C)c1S(=O)(=O)NC(=O)c1cc2ccc(N(C)C)cc2o1", "endpoint.name": "IC50", "qualifier.symbol": "=", "number": 508}
{"compound": "Cc1ccc(S(=O)(=O)NC(=O)c2cc3ccc(N(C)C)cc3o2)c(-c2ccccc2)c1", "endpoint.name": "IC50", "qualifier.symbol": "=", "number": 49}
{"compound": "Cc1cc(N(C)C)cc2oc(C(=O)NS(=O)(=O)c3ccccc3-c3ccccc3)cc12", "endpoint.name": "IC50", "qualifier.symbol": "=", "number": 654}
{"compound": "CC(C)Oc1cccc(Cl)c1S(=O)(=O)NC(=O)c1cc2ccc(N(C)C)cc2o1", "endpoint.name": "IC50", "qualifier.symbol": "=", "number": 172}
{"compound": "Cc1ccc2cccc(S(=O)(=O)NC(=O)c3cc4ccc(N(C)C)cc4o3)c2n1 [Example 225]", "endpoint.name": "IC50", "qualifier.symbol": "=", "number": 25.8}
{"compound": "CN(C)c1ccc2cc(C(=O)NS(C)(=O)=O)oc2c1", "endpoint.name": "IC50", "qualifier.symbol": ">", "number": 20000}
{"compound": "CN(C)c1ccc2cc(C(=O)NS(=O)(=O)c3cccc4ccc(Cl)nc34)oc2c1", "endpoint.name": "IC50", "qualifier.symbol": "=", "number": 23.8}
{"compound": "CC(C)COc1ccccc1S(=O)(=O)NC(=O)c1cc2ccc(N(C)C)cc2o1", "endpoint.name": "IC50", "qualifier.symbol": "=", "number": 190}
{"compound": "Cc1ccnc2c(S(=O)(=O)NC(=O)c3cc4ccc(N(C)C)cc4o3)cccc12", "endpoint.name": "IC50", "qualifier.symbol": "=", "number": 92.2}
{"compound": "CCCOc1ccc(C)cc1S(=O)(=O)NC(=O)c1cc2ccc(N(C)C)cc2o1", "endpoint.name": "IC50", "qualifier.symbol": "=", "number": 87.2}
{"compound": "COc1cc(C)ccc1S(=O)(=O)NC(=O)c1cc2ccc(N(C)C)cc2o1", "endpoint.name": "IC50", "qualifier.symbol": "=", "number": 56.2}
